Test system: Tyrosine-protein kinase ABL1 (Homo sapiens), P00519 [Y253F]
Conditions: at 0.1 µM
property-name: inhibition

# annotated cases, reported inhibition shown
O=C(Nc1n[nH]c2cc(-c3cc(F)ccc3F)ccc12)C1CC1; 13.8%
CNC(=O)c1cncc(/C=C/c2c(C)cccc2C)c1; 21.9%

Batch request: inhibition per item, same order as input.
1. COc1ccc2ncn(-c3cc(O[C@H](C)c4ccccc4Cl)c(C(N)=O)s3)c2c1
2. COc1cccc(-n2cnc3c(N/N=C/c4ccncc4)ncnc32)c1

[out]
["2.13%", "44.6%"]

Batch request: inhibition per item, same order as input.
1. NC(=O)c1cc(-c2ccc(F)cc2)cc(-c2ccncc2)c1N
2. Fc1ccc(-c2ncn(C3CCNCC3)c2-c2ccnc(Oc3ccc(F)c(F)c3)n2)cc1

[out]
1: 4.33%; 2: 1.79%

Batch request: inhibition per item, same order as input.
1. CN1CCN(CCCNc2nc3ccc(Oc4ccc(NC(=O)Nc5cc(C(F)(F)F)ccc5F)cc4)cc3[nH]2)CC1
2. Fc1ccc(-c2c(-c3ccncc3)nc3n2CCS3)cc1
3. CN(C)CCCNc1nccc(-c2c(-c3ccc(F)cc3)nn3cc(C(F)(F)F)ccc23)n1

[out]
4.8%
2.69%
3.93%

----------
Target: Serine/threonine-protein kinase D2 (Homo sapiens) (UniProt Q9BZL6);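 note: reported percent inhibition values are means, part of the GSK PKIS kinase panel screen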
Sequence (whole entry): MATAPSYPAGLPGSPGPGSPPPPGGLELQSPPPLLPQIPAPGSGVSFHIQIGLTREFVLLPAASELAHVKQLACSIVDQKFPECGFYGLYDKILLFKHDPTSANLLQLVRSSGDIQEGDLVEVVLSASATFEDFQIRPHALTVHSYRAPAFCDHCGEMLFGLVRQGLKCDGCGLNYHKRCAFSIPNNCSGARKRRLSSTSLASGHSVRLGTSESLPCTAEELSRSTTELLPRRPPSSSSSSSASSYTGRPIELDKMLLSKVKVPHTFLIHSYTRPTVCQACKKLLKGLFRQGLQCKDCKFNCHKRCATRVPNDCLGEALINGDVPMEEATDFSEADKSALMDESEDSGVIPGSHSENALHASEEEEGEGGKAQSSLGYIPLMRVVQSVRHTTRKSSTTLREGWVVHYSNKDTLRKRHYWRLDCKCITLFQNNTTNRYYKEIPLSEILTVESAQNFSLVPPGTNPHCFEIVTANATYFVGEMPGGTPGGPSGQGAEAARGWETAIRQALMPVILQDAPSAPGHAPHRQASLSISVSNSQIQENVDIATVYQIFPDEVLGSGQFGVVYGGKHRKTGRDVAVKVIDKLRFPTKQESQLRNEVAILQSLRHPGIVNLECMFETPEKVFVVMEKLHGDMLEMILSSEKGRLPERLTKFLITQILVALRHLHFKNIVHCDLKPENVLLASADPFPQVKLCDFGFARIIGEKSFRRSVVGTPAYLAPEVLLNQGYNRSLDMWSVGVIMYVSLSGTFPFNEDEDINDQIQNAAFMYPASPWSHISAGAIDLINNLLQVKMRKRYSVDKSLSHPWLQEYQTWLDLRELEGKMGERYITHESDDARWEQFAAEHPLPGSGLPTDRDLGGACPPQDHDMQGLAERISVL
Details: at 0.1 µM
Provide the recorded inhibition for the entries that follow.
One number for each entry, in %.

CN(C)CCOc1ccc(-c2cc(-c3ccc4c(c3)CCC4=NO)c(-c3ccncc3)o2)cc1; 0.89

Batch request: inhibition per item, same order as input.
1. CCN(CC)Cc1ccc(Nc2nccc(-c3cnn4ncccc34)n2)cc1
2. Fc1ccc(-c2ncn(C3CCNCC3)c2-c2ccnc(Oc3ccc4c(c3)OCO4)n2)cc1

[out]
1. 28.1
2. 5.35

Batch request: inhibition per item, same order as input.
1. COc1cc(N2CCN(C(C)C)CC2)ccc1Nc1nc(Nc2ccc(F)cc2C(=O)NC[C@@H](O)CO)c2cc[nH]c2n1
2. COc1cccc(-n2cnc3c(N/N=C/c4ccncc4)ncnc32)c1
3. Cc1nnc(-c2ccc(C)c(-c3ccc(C(=O)NCc4ccc(Cl)cc4)cc3)c2)o1

[out]
1: 3.16; 2: -4.34; 3: 0.28

Batch request: inhibition per item, same order as input.
1. CN(C)c1ccc2c(c1)/C(=C/Nc1ccc(S(N)(=O)=O)cc1)C(=O)N2
2. FC(F)(F)c1cccc(Nc2nccc(-c3cnn4nc(-c5ccccc5)ccc34)n2)c1
3. Fc1ccc(-c2c(-c3ccncc3)nc3n2CCS3)cc1

[out]
[1.23, 1.86, -0.29]

Batch request: inhibition per item, same order as input.
1. COc1cc(Nc2ncc3c(C)nc(-c4cccc(C(F)(F)F)c4)n3n2)cc(OC)c1OC
2. NS(=O)(=O)c1ccc(Nc2cc(-c3ccc(O)c(F)c3)n[nH]2)cc1
3. NCc1ccc(-n2c(-c3nonc3N)nc3cnccc32)cc1
4. COc1ccc2cc(-c3c(-c4ccncc4)nc(-c4ccc([S+](C)[O-])cc4C)n3C)ccc2c1 (stereo not drawn)

[out]
[1.81, -2.32, 8.58, -0.62]
